Experiment: in vitro
Conditions: human, Caco-2, pH 6.5
Measure name: efflux ratio at 2 h, 10 μM
Please give the numeric answer without any surrounding text.

# input molecule: `Nc1cc(CN(CC2CCNCC2)S(=O)(=O)c2ccc(S(=O)(=O)N(Cc3ccc(Cl)cc3)C3CCCC3)cc2)ccc1C(=O)O` ; wanted: its efflux ratio at 2 h, 10 μM
0.6

Same again, this time with `CNc1nccc(CN([C@H]2CC[C@H](N)CC2)S(=O)(=O)c2ccc(S(=O)(=O)N(Cc3ccc(Cl)cc3)C3CCCC3)cc2)n1`
2.9

Now try `O=S(=O)(c1ccc(S(=O)(=O)N(Cc2ccc(Cl)cc2)C2CCCC2)cc1)N(Cc1ccccc1)CC1CCNCC1` .
0.9

What would you report for `CNc1cc(CN(CC2CCNCC2)S(=O)(=O)c2ccc(S(=O)(=O)N(Cc3ccc(Cl)cc3)C3CCCC3)cc2)ccc1C(=O)O` ?
1.1

Ref: patent US10913710B2
